# Assay notes: HILIC, Merck SeQuant ZIC-HILIC, 150 × 2.1 mm, 5 µm, 0.75 mL/min, estimated dead time 0.44 min; A: water + 0.1% acetic acid + 10 mM ammonium acetate, pH 4; B: 5% water + 95% acetonitrile + 0.1% acetic acid + 10 mM ammonium acetate, pH 4; gradient (min/%B) 0/95 5/95 20/57 25/57 30/95 40/95
# Run parameters: stereoisomer not certain
Counter-ions that a name gives are not always drawn.
Measurement label: LC retention time (min)

Worked examples follow.
[
  {
    "Compound": "NCCC(=O)NC(Cc1cnc[nH]1)C(=O)O (stereo not given)",
    "Measurement label": "LC retention time",
    "Unit": "min",
    "Quantitative readout": 16.3
  },
  {
    "Compound": "O=S(=O)(O)Oc1c[nH]c2ccccc12 [INDOXYL SULFATE]",
    "Measurement label": "LC retention time",
    "Unit": "min",
    "Quantitative readout": 3.84
  },
  {
    "Compound": "O=C([O-])CCc1ccccc1O [3-(2-HYDROXYPHENYL)PROPANOATE]",
    "Measurement label": "LC retention time",
    "Unit": "min",
    "Quantitative readout": 2.27
  },
  {
    "Compound": "Nc1ccn(C2OC(CO)C3OP(=O)([O-])OC32)c(=O)n1 (stereo not given) [CYTIDINE 2',3'-CYCLIC MONOPHOSPHATE]",
    "Measurement label": "LC retention time",
    "Unit": "min",
    "Quantitative readout": 12.1
  },
  {
    "Compound": "c1ncc2[nH]cnc2n1",
    "Measurement label": "LC retention time",
    "Unit": "min",
    "Quantitative readout": 1.25
  },
  {
    "Compound": "Cc1ncc(CO)c(C(=O)O)c1O [4-PYRIDOXATE]",
    "Measurement label": "LC retention time",
    "Unit": "min",
    "Quantitative readout": 1.41
  },
  {
    "Compound": "NC(=O)CC[C@H](N)C(=O)O",
    "Measurement label": "LC retention time",
    "Unit": "min",
    "Quantitative readout": 12.9
  },
  {
    "Compound": "O=C(O)CCCCCC(=O)O [6-CARBOXYHEXANOATE]",
    "Measurement label": "LC retention time",
    "Unit": "min",
    "Quantitative readout": 11.9
  }
]

P = CSCC1OC(n2cnc3c(N)ncnc32)C(O)C1O (stereo not given)
Q = O=C([O-])[C@H](O)[C@@H](O)[C@H](O)[C@H](O)CO [D-GLUCONATE]
R = CC(=O)N[C@H](Cc1c[nH]c2ccccc12)C(=O)O
S = O=c1ccn(C2OC(CO)C(O)C2O)c(=O)[nH]1 (stereo not given)
T = CC(C)=CCNc1ncnc2nc[nH]c12
Enquiry: Arrange the 5 compounds from largest to smallest LC retention time. Order the labels as requested and list them.
Return: Q, R, S, P, T

P = CC(=O)NCCc1c[nH]c2ccc(O)cc12
Q = CC(O)(CC(=O)O)C(=O)O (stereo not given) [CITRAMALATE]
Enquiry: Given the listed records, identify the one among P and Q with higher LC retention time. Use the label to indicate which entry you chose.
Return: Q
(Q: 12.2 min, P: 1.09 min)
